- assay procedure: Total Fluorescence Counterscreen for Inhibitors of the Interaction of Thyroid Hormone Receptor and Steroid Receptor Coregulator 2
- study conditions: TRb/SRC2 Texas Red total fluorescence interference; series mostly up to 106 µM
About 820 (0.29%) of roughly 280,000 compounds were called active. Inconclusive results (about 1%) are left out. Calls follow the shape of the dose curve; as a rule, active = well fitted curve in either direction with a large enough effect; inconclusive = small, poorly fitted or top-dose-only effect; inactive = flat fitted curve, though single readings scatter. The entries come from a sample that favours actives as a whole.
Classes used: yes for active, no for inactive

{"compound": "Cc1ccc(/C=N/NC(=S)Nc2cccc(S(=O)(=O)N(C)C)c2)o1", "qualitative label": "no"}
{"compound": "Cc1ccc(NC(=O)c2ccc(CN3CC(=O)N4CCCCC4C3=O)cc2)c(Cl)c1 (stereo not given)", "qualitative label": "yes"}
{"compound": "COc1ccc(OC)c(NC(=O)CSC2=Nc3ccccc3C3=NC(CC(=O)NCc4ccc(F)cc4)C(=O)N23)c1 (stereo not given)", "qualitative label": "no"}
{"compound": "CC(C)CCCCCOC(=O)CS", "qualitative label": "no"}
{"compound": "CN(C)S(=O)(=O)c1cccc(NC(=S)N/N=C/C(=O)c2ccccc2)c1", "qualitative label": "yes"}
{"compound": "CCn1c(=O)c(=O)n(CC)c2cc(N3CCCCC3)c(NC(=O)c3ccc(Cl)cc3)cc21", "qualitative label": "no"}
{"compound": "Cc1ccc(S(=O)(=O)n2nc(-c3ccc(Cl)cc3)nc2NCc2ccccc2)cc1", "qualitative label": "yes"}
{"compound": "CCOC(=O)c1ccc(NC(=O)c2csc3c2CCCCC3)cc1", "qualitative label": "no"}
{"compound": "Cc1ccc(-n2nc(C)c3c(C)cc(=O)n(CC(=O)Nc4ccc(C(C)C)cc4)c32)cc1", "qualitative label": "no"}
{"compound": "Cc1ccccc1OCCSc1nc2ccc(NC(=O)c3ccco3)cc2s1", "qualitative label": "no"}
